# Tested Target: Histamine H3 receptor (Cavia porcellus, UniProt Q9JI35)
# Sequence (Q9JI35 whole entry): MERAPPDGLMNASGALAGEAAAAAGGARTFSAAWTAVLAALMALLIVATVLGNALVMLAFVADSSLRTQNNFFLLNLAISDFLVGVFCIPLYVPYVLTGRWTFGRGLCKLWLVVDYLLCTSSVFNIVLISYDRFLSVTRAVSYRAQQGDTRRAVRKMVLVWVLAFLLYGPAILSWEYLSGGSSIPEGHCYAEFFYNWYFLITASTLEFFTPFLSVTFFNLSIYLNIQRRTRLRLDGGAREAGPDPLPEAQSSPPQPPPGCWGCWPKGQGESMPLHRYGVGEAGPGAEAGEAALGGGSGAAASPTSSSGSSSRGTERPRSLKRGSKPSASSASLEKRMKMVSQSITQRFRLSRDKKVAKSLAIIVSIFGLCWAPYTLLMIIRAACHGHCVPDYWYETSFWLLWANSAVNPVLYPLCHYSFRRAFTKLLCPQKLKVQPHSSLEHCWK
# Experimental Details: Histamine H3 functional assay, guinea pig ileum (ileal longitudinal muscle, myenteric plexus)
# Design: species or system tissue
# Condition Context: antagonist affinity from rightward shift of R-(α)-methylhistamine E/[A] curves (Schild); typical variance ±0.15 log units; read-out: pKb (Guinea pig ileum) (converted)
Counter-ions that a name gives are not always drawn.
Threshold 400 nM. Kb below it: 1. Kb at it or above: 0.

> print(dat)
                                   compound  class.name
1        O=S(=O)(NCCCN1CCCC1)c1ccc2ccccc2c1           0
2       O=S(=O)(NCCCCN1CCCC1)c1ccc2ccccc2c1           0
3  C[C@@H](NC(=N)NCCCCN1CCCC1)C1CCCCC1 [Example 44, bis-hydrochloride]           1
4  N=C(NCCCN1CCCC1)NCc1ccccc1Br [Example 11, bis-hydrochloride]           0
5  N=C(NCCCN1CCCC1)NCc1ccc(Br)cc1 [Example 9, bis-hydrochloride]           1
6    CN1CCC[C@H]1CCCNS(=O)(=O)Nc1ccc(Cl)cc1           0
7  N=C(N)N(CCCCCCCN1CCCC1)Cc1ccc(Cl)cc1 [Example 71, bis-hydrochloride]           1
8  CNC(=O)CN(CCC[C@@H]1CCCN1C)S(=O)(=O)NCc1ccc(Cl)cc1           0

src = patent US6878736B1
